# Subject Of Test: Cytochrome P450 1A2 (Homo sapiens, UniProt P05177)
# Sequence (P05177 whole entry): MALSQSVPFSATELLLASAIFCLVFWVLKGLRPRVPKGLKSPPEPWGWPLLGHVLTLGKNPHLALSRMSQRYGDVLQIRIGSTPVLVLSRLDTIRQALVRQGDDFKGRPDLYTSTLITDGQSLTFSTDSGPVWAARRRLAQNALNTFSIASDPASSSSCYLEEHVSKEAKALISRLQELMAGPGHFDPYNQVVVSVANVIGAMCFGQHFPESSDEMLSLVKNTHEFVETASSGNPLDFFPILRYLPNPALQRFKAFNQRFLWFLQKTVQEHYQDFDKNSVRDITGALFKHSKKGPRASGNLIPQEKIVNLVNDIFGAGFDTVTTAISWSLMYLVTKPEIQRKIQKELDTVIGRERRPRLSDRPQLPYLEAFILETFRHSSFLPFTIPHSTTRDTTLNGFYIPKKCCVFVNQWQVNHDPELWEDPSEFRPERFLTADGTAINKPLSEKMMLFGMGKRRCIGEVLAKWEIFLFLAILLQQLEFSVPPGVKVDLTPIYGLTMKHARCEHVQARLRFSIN
Field: AC50. Provide a value for each of the compounds that follow.

[[record]]
compound = "CN1C2CCC1/C(=C\\c1ccccc1)C(=O)/C2=C\\c1ccccc1"
measured_quantity = "AC50"
readout_value = "39.8 µM (inconclusive)"


Below are 6 compounds. Give each one its AC50.
1. N#CCCn1c(=O)c(CCc2ccccc2)nc2cnc(OCc3ccccc3)nc21
2. CCCN1C[C@H](CSC)C[C@H]2c3cccc4[nH]cc(c34)C[C@@H]21
3. CC(=N)/C(C#N)=C(/O)COc1ncnc2ccc(Br)cc12
4. COC1(OC)N=C(NC(=O)Nc2ccccc2)C2(C#N)C(c3ccccc3)C12C#N (configuration not stated)
5. O=C(Nc1ccccc1)N1CCCC2(CCNCC2)C1
6. CC(C)c1ccc(/C=N/NC(=O)CN(c2cccc(Cl)c2Cl)S(C)(=O)=O)cc1

Key:
1: 12.6 µM (inconclusive); 2: 3.16 µM (inconclusive); 3: 0.0316 µM (inconclusive); 4: 39.8 µM (inconclusive); 5: 25.1 µM (inconclusive); 6: 25.1 µM (inconclusive)

Give AC50 for each of the items listed below.
1. Nc1nc2c(C(=O)NCc3cccs3)nnn2c2cccc(Cl)c12
2. COC(=O)c1ccc(N2CCN(c3ccccc3)CC2)c(NC(=O)C2CC2)c1
3. Oc1nncc(-c2ccccc2)n1
4. COc1ccc(-c2nc3cnc(OC)nc3n(CCC#N)c2=O)cc1
5. N[C@]1(C(=O)O)CCc2cc(P(=O)(O)O)ccc21
6. CC1=C(/C=C\C(=O)O)C(C)(C)CCC1
7. N=C(c1ccc2ccccc2c1)c1ccccc1Cc1ccccc1
8. CN1CCN(c2ncc3nc(CCc4ccccc4)c(=O)n(C4CC4)c3n2)CC1

Key:
1 µM (inconclusive)
39.8 µM (inconclusive)
14.1 µM (inconclusive)
6.31 µM (inconclusive)
39.8 µM (inconclusive)
6.31 µM (inconclusive)
0.501 µM (inconclusive)
12.6 µM (inconclusive)

====

Record form. Attribute: AC50. Fill in for each entry.
# Subject Of Test: Cytochrome P450 2C9 (Homo sapiens, UniProt P11712)
# Sequence (P11712 whole entry): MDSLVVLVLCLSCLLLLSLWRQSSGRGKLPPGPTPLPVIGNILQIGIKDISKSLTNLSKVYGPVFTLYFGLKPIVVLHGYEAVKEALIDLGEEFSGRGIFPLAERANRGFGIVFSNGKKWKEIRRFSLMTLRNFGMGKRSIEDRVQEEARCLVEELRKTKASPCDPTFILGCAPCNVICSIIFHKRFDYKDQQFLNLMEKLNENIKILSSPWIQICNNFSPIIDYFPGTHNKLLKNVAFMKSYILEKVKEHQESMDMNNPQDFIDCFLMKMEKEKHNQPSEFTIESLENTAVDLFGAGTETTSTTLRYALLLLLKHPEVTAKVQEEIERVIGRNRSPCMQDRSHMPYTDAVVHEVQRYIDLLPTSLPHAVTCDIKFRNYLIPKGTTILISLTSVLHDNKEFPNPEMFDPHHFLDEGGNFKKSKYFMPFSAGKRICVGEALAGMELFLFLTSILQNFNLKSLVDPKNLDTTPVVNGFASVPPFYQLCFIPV

Record AC50 per entry; entries follow.
1. CCc1cc2c(O)ncnc2s1
2. Nc1ccc(S(=O)(=O)Nc2cnc3ccccc3n2)cc1 [SULFAQUINOXALINE SODIUM]
3. COc1cc(CC(=O)OC2CCOC2=O)cc(OC)c1OC (centres undefined)
4. CCNC(=O)CC1C(=O)N(c2ccc(F)cc2)C(=O)N1CCc1ccc(OC)cc1 (centres undefined)

Key:
1. 28.2 µM (inconclusive)
2. 10 µM (inconclusive)
3. 39.8 µM (inconclusive)
4. 0.282 µM (inconclusive)

src = ChEMBL document CHEMBL1201862
